// data source = patent US8193192B2

Tmax reference
- Assay name: Determination of pharmacokinetic parameters in mice (oral cassette dosing)
- Type: in vivo
- Measurement parameters: male, mouse, plasma; C57BL/6 mice, po 5 mg/kg
Field: numeric (min). Do not append units.

Cc1cc(OCc2c(-c3c(Cl)cccc3Cl)noc2C(C)C)cnc1Oc1ccc(C(=O)O)cc1
10

Reported Tmax of CC(C)c1onc(-c2c(Cl)cccc2Cl)c1COc1ccc(Oc2ccc(C(=O)O)cc2)cc1 [Compound A, reference compound] : 10

* * *

- Assay name: Determination of pharmacokinetic parameters in mice (oral cassette dosing)
- Format: in vivo
- Measurement parameters: male, mouse, plasma; sampling time 60 min; C57BL/6 mice, po 5 mg/kg, cassette; read-out: mean plasma conc.
Readout kind: concentration at 60 min (ng/mL)
Field: numeric (ng/mL). Do not append units.

Cc1cc(OCc2c(-c3c(Cl)cccc3Cl)noc2C(C)C)cnc1Oc1ccc(C(=O)O)cc1 [Example 3]
291

Reported concentration at 60 min of CC(C)c1onc(-c2c(Cl)cccc2Cl)c1COc1ccc(Oc2ccc(C(=O)O)cc2)cc1 [Compound A, reference compound] : 43
